Origin of measurements: ChEMBL document CHEMBL3091334

These compounds were tested on UniProt P34947; IC50 is the recorded read-out.
Sequence (P34947 whole entry): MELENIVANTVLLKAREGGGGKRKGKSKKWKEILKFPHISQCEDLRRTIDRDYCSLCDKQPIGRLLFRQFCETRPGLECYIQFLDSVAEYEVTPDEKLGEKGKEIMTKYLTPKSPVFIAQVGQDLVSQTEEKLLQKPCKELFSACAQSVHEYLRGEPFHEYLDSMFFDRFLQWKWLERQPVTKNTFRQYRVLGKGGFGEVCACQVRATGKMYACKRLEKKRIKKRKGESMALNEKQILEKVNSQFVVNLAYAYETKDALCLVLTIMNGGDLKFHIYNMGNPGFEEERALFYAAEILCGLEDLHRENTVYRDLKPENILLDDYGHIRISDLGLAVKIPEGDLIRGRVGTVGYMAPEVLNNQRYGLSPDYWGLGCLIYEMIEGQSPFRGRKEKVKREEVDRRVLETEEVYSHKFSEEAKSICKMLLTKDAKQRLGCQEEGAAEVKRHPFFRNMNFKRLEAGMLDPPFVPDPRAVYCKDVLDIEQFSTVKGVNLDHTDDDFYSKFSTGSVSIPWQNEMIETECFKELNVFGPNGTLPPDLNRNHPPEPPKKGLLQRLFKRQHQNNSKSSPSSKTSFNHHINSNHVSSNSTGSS
One number for each entry, in µM.

Hey, quick one: what's IC50 for each of these?
1. CCc1ccc2nc(-c3cc(-c4cnn(C5CCNCC5)c4)cnc3N)oc2c1O
2. Nc1ncc(-c2cnn(C3CCNCC3)c2)cc1-c1nc2ccc(Oc3ccccc3)cc2o1

[3.4, 4]

Hey, quick one: what's IC50 for each of these?
1. Nc1ncc(-c2cnn(C3CCNCC3)c2)cc1-c1nc2ccc(OCc3ccccc3)cc2o1
2. CC(=O)Nc1ccc2oc(-c3cc(-c4cnn(C5CCNCC5)c4)cnc3N)nc2c1
3. Nc1ncc(-c2cnn(C3CCNCC3)c2)cc1-c1nc2cc(N3CCOCC3)ccc2o1

1. 6.9
2. 3.22
3. 1.05
